Measured Percent remaining insulin analog, Gastric fluid (30 minutes), listed per entry for reference.
target-of-assay: simulated gastric fluid (pepsin) (Sus scrofa)
Construct: from tissue; host or cells: porcine stomach mucosa
Sequence (P00791 60-385): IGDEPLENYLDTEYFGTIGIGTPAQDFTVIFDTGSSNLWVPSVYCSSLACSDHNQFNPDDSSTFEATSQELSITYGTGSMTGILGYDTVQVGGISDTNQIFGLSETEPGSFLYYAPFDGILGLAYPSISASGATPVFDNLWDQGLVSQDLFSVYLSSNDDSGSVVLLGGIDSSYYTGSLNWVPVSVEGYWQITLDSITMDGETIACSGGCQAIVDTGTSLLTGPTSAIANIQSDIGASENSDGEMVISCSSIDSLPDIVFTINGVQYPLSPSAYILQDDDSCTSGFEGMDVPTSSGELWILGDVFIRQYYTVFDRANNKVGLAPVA
assay-info: In vitro stability in simulated gastric fluid (Example 9)
Type: in vitro ADME, porcine
condition-parameters: 37° C., 2 μM
experimental-readout: Percent remaining insulin analog, Gastric fluid (30 minutes) (%)

{"columns": ["molecule", "assay-value"],
 "data": [
  ["O=C(O)CCCCCCCCCCCCCc1cc(Oc2ccc(S(=O)(=O)Nc3ccc(C(=O)NCCOCCOCC(=O)NCCOCCOCC(=O)O)cn3)cc2)ccc1F [Binder 22]", 52],
  ["O=C(O)CCCCCCCCCc1ccc(OCc2ccc(S(=O)(=O)Nc3ccc(C(=O)NCCOCCOCC(=O)NCCOCCOCC(=O)O)cc3)cc2)cc1 [Binder 2]", 0],
  ["O=C(O)CCCCCCCCCCCCCCCOc1ccc(S(=O)(=O)Nc2ncc(C(=O)NCCOCCOCC(=O)NCCOCCOCC(=O)O)cn2)cc1F [Binder 38]", 36],
  ["O=C(O)CCCCCCCCCOc1ccc(S(=O)(=O)Nc2ccc(C(=O)NCCOCCOCC(=O)NCCOCCOCC(=O)O)cn2)cc1 [Binder 19]", 0]
]}

====

Measured NRT [min] (net retention time on columns with immobilized human serum albumin), listed per entry for reference.
target-of-assay: immobilized human serum albumin (Homo sapiens, UniProt P02768)
Construct: purchased Chiralpak (Chiraltech) 34712
Sequence (P02768 25-609): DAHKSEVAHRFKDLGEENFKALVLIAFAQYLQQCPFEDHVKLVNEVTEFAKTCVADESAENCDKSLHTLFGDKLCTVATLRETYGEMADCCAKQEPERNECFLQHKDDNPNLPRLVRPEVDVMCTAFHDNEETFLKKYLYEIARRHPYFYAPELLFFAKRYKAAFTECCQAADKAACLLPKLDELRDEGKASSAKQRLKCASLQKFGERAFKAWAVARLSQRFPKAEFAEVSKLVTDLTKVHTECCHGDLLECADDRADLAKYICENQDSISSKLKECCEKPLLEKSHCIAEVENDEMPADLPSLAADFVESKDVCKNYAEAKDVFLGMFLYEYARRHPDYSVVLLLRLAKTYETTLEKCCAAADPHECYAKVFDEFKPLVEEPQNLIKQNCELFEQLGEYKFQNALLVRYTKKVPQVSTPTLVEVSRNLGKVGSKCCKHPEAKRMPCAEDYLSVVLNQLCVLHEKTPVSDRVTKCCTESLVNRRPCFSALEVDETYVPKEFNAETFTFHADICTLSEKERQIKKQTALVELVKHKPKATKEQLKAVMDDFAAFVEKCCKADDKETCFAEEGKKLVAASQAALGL
assay-info: Albumin binding: affinity chromatography on columns with immobilized human serum albumin (net retention time)
condition-parameters: isolated binders; HSA column 25° C., PBS pH 7.4/isopropanol gradient
experimental-readout: NRT [min] (net retention time on columns with immobilized human serum albumin)

{"columns": ["compound", "assay-value"],
 "data": [
  ["O=C(O)CCCCCCCCCc1ccc(CCOc2ccc(S(=O)(=O)Nc3ccc(C(=O)NCCOCCOCC(=O)NCCOCCOCC(=O)O)cn3)cc2)cc1 [Binder 26]", 14.98],
  ["O=C(O)CCCCCCCCCc1ccc(S(=O)(=O)Nc2ccc(C(=O)NCCOCCOCC(=O)NCCOCCOCC(=O)O)cn2)cc1 [Binder 67]", 10.99],
  ["O=C(O)CCCCCCCCCCCCCCCOc1ccc(S(=O)(=O)Nc2ncc(C(=O)NCCOCCOCC(=O)NCCOCCOCC(=O)O)c(C(F)(F)F)n2)cc1 [Binder 45]", 13.8]
]}

====

target-of-assay: α-Chymotrypsin (Bos taurus, UniProt P00766)
assay-info: In vitro proteolytic stability against α-chymotrypsin (Example 9)
Format: in vitro ADME
condition-parameters: 37° C., 2 μM
Measured Percent remaining insulin analog, α-Chymotrypsin (120 minutes), listed per entry for reference.
experimental-readout: Percent remaining insulin analog, α-Chymotrypsin (120 minutes) (%)

{"columns": ["molecule", "u", "assay-value"],
 "data": [
  ["O=C(O)CCCCCCCCCc1ccc(OCc2ccc(S(=O)(=O)Nc3ccc(C(=O)NCCOCCOCC(=O)NCCOCCOCC(=O)O)cc3)cc2)cc1 [Binder 2]", "%", 35],
  ["O=C(O)CCCCCCCCCCCCCCCOc1ccc(S(=O)(=O)Nc2ncc(C(=O)NCCOCCOCC(=O)NCCOCCOCC(=O)O)cn2)cc1F [Binder 38]", "%", 34],
  ["O=C(O)CCCCCCCCCOc1ccc(S(=O)(=O)Nc2ccc(C(=O)NCCOCCOCC(=O)NCCOCCOCC(=O)O)cn2)cc1 [Binder 19]", "%", 30],
  ["O=C(O)CCCCCCCCCCCCCCOc1ccc(S(=O)(=O)Nc2ccc(C(=O)NCCOCCOCC(=O)NCCOCCOCC(=O)O)cn2)cc1 [Binder 7]", "%", 58],
  ["O=C(O)CCCCCCCCCCCc1cc(Oc2ccc(S(=O)(=O)Nc3ccc(C(=O)NCCOCCOCC(=O)NCCOCCOCC(=O)O)cn3)cc2)ccc1F [Binder 24]", "%", 40],
  ["O=C(O)CCCCCCCCCCCCCc1ccc(CCOc2ccc(S(=O)(=O)Nc3ncc(C(=O)NCCOCCOCC(=O)NCCOCCOCC(=O)O)cn3)cc2)cc1 [Binder 12]", "%", 31],
  ["O=C(O)CCCCCCCCCCCCCc1cc(Oc2ccc(S(=O)(=O)Nc3ccc(C(=O)NCCOCCOCC(=O)NCCOCCOCC(=O)O)cn3)cc2)ccc1F [Binder 22]", "%", 99]
]}

Values were extracted from patent US11098102B2.
